System: LOX IMVI
TEST NAME: NCI tumour cell line growth inhibition, 48 h
Active and inactive are the calls of the source. Cut-off read from the data, not from the text of the source: active = GI50 up to about 1.1 µM and inactive = higher.
I would appreciate it if you answered using one of these outcomes: 1 (active), 0 (inactive)

Query :: Any idea what this test logged for CC(C)=CC(=O)c1c(C(=O)O)nc2ccccc2[n+]1[O-] ?
Result :: 0

Query :: Similarly, C1=CCC[C@@H]2CN3CCCC/C=C\CCCC[C@H]4C[C@H](CN(CCCCCCCC1)C4)[C@H]2CC3 ?
Result :: 0

Query :: Repeat for the following compound: CC1CC2OC(=O)CC2C[C@@H]1O[Si](C)(C)C(C)(C)C (stereo not given in full)
Result :: 0

Query :: And the next one, Clc1ccc(OCc2nnc(COc3ccc(OCc4nnc(COc5ccc(Cl)cc5Cl)o4)c(Cl)c3)o2)c(Cl)c1 ?
Result :: 0

Query :: Next up: Cc1cccc(C)c1NC(=O)C(=O)C(c1ccccc1Cl)S(=O)(=O)Cc1ccccc1Cl (stereo not given)
Result :: 0

Query :: Same lookup for CC1=NN(c2ccccc2)C(=O)/C1=C/c1ccc(O)cc1 , please.
Result :: 0

Query :: Would you mind doing CN(/N=C/C=N/N(C)C1=NCCCCN1)C1=NCCCCN1 as well?
Result :: 0

Query :: Same lookup for C[C@@H](C1CC[C@H]2[C@@H]3[C@@H]4O[C@@H]4[C@@]4(O)CC=CC(=O)[C@]4(C)[C@H]3C[C@H](O)[C@]12C)[C@H]1C[C@]2(C)O[C@]2(C)C(=O)O1 (stereo not given in full) , please.
Result :: 0

Query :: Now the compound COc1cc(OC)nc(Nc2c(C#N)c3nc4ccccc4n3c3ccccc23)n1
Result :: 0

Query :: // same read-out, input: O=c1[nH]nc(Cc2ccccc2)n1/N=C/c1ccco1
Result :: 0

Query :: Query COC(=O)C1=C(O)C(C(=O)OC)[C@]2(O)[C@H](C(=O)OC)[C@H]1C[C@@H](c1ccc(C(F)(F)F)cc1)[C@H]2C(=O)OC (stereo not given in full) next
Result :: 0

Query :: Also need C/C(=N\Nc1nc2ccccc2n1C)c1cnccn1 , thanks.
Result :: 1

Query :: Check COC(=O)CCC(=O)NC1c2cccc3cccc(c23)Cn2c(=O)n(C)c(=O)n21 (stereo not given) too.
Result :: 0

Query :: Would you kindly repeat that for COc1cc(/C=C2\N=C(c3ccccc3)N(c3nc4c(Cl)cc(Cl)cc4s3)C2=O)ccc1O ?
Result :: 0

Query :: Repeat for the following compound: C=C1C(=O)O[C@H]2[C@@H]3O[C@@](C)(CC/C=C(\C)CCC[C@@H]2C)[C@H](O)C[C@@H]13
Result :: 0

Query :: Proceed to S=C(NN=C1NCCCCN1)Nc1ccccc1
Result :: 0

Query :: Let us now turn to c1ccc2c(c1)CCN1CCc3c([nH]c4ccccc34)C21 (stereo not given)
Result :: 0

Query :: Also, C=C=C(CC(CC(=C)Br)(C(=O)OC)C(=O)OC)S(=O)(=O)c1ccccc1 please.
Result :: 1

Query :: Oc1ccccc1/C=N/c1ccc(Oc2ccc(Cl)cc2)c(Cl)c1 ?
Result :: 0

Query :: Here is the next compound: CSc1ccsc1-c1sc(-c2cc(SC)c(-c3sc(-c4cc(SC)c(-c5sccc5SC)s4)cc3SC)s2)cc1SC
Result :: 0

Query :: // query: Nc1nc(Cl)cc(NCCCNc2cc(Cl)nc(N)n2)n1
Result :: 0

Query :: Thanks! And CCCCc1ccc(Nc2nc(Cl)c3ncn(COCCOC(C)=O)c3n2)cc1 ?
Result :: 0

Query :: Now try COc1cc(/C=C\c2ccccc2)cc(OC)c1OC .
Result :: 0

Query :: Now give it for CC(=O)Nc1ccc(N2C(=O)CS(=O)(=O)C2c2cccc(Oc3ccccc3)c2)cc1 (stereo not given) too.
Result :: 0

Query :: Also need COc1ccc(/C=C2\CCC(CN(C)C)C2=O)cc1OC (stereo not given) , thanks.
Result :: 0
